The origin of these recorded values is patent US20140072563A1.

# study_target: T1, hErbB3.hFc (soluble dimeric human ErbB3 extracellular domain fused to human Fc) (human)
# T1 construct: called dimeric
# T1 sequence (chain, as listed by the source limits assumed): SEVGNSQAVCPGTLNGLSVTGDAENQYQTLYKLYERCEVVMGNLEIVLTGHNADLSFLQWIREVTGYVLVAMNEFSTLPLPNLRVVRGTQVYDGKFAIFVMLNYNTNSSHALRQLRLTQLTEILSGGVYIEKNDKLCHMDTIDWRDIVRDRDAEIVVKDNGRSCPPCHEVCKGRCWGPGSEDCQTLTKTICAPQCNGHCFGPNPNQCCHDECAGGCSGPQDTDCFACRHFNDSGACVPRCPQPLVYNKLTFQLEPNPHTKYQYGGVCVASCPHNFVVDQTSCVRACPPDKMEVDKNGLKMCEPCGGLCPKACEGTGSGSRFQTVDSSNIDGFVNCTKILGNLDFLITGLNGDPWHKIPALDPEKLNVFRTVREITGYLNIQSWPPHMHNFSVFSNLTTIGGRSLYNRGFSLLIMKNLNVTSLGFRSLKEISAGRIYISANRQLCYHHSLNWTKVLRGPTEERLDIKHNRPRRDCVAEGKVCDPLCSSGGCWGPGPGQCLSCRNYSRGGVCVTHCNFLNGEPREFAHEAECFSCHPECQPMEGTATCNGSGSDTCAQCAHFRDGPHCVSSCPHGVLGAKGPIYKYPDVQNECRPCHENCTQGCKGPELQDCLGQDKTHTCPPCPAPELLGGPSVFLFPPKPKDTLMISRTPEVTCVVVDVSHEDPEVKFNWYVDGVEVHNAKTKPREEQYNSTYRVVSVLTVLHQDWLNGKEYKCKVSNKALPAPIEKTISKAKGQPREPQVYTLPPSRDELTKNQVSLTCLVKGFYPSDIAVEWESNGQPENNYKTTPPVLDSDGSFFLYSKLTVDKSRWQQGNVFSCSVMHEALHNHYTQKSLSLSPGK
# experimental_details: SPR (Biacore), 25 C, mAb capture format
Each item that follows carries a reported koff.
Please reply with the bare figure in s⁻¹ and do not write the unit itself.

Look over these answered cases.
# binder, koff [s⁻¹]
data = [
    ("H2M1934N (antibody, V domains shown, Hybridoma chimeric antibody: human variable domains, mouse IgG2 Fc (H2M prefix)) VH: EVQLVQSGGGLVKPGGSLRLSCAASGFTFSNFNMNWVRQAPGKGLEWVSFISSLSTYTYYADSVKGRFTISRDNAKNSLYLQMNSLRAEDTAVYYCARDDGDHDWFDPWGQGTLVTVSS VL: EIVLTQSPDTLSLSPGERATLSCRASQSVSSNYLAWYQQKPGQAPRLLIYSASNRATGIPDRFSGSGSGTDFTLTISRLEPEDFAVYYCQQYDSSYTFGQGTKLEIK", "7.97e-06"),
    ("H2M1827N (antibody, V domains shown, Hybridoma chimeric antibody: human variable domains, mouse IgG2 Fc (H2M prefix)) VH: EVQLVESGGGVVRPGGSLRLSCAASGFTFDDYGMSWVRQAPGKGLECVSGISWNGGNTDYADSVKGRFTISRDNAKNSLYLQMNSLRAEDTALYHCARDGGDWDYFDLWGRGTLVTVSS VL: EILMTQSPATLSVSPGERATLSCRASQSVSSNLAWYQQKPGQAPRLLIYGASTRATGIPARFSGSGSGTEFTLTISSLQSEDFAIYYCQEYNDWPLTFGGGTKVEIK", "7.58e-06"),
    ("H2M1937N (antibody, V domains shown, Hybridoma chimeric antibody: human variable domains, mouse IgG2 Fc (H2M prefix)) VH: QVQLQQWDAGLLKPSETLSLTCAVYGGSFSSYYWSWIRQPPGKGLEWIGEINHRGSTNYNPSLKSRVTISVDTSKNQFSLKLRSVTAADTAVYYCARGGVAARPDWHFFDYWGQGTLVTVSS VL: DIQMTQSPSSLSASVGDRVTITCRASQVIRNDLGWFQQRPGKAPKRLIYAASSLQSEVPSRFSGSGSGTEFTLTITSLQPEDFATYYCLQHNSYPLTFGQGTRLEIK", "1.27e-05"),
    ("H2M1824N (antibody, V domains shown, Hybridoma chimeric antibody: human variable domains, mouse IgG2 Fc (H2M prefix)) VH: EVQLVESGGGVVRPGGSLRLSCAASGFTFDDYGMSWVRQAPGKGLECVSGINWNGGSTDYADSVKGRFTISRDNAKNSLYLQMNSLRAEDTASYYCARDGGDWDYFDLWGRGTLVTVSS VL: EIVMTQSPATLSVSPGERATLSCRASQSVSSNLAWYQQKPGQAPRLLIYGASTRATGIPARFSGSGSGTEFTLTISSLQSEDFAVYFCQEYNDWPLTFGGGTKVEIK", "1.44e-06"),
]

Request: Give its koff value. Item: H1M1828N (antibody, V domains shown, Hybridoma chimeric antibody: human variable domains, mouse constant domains (H1M prefix, mouse Fc)) VH: EVQLVESGGGLVQPGRSLRLSCAASGFTFDDYAMYWVRQAPGKGLEWVSGISWNSGSIGYADSVKGRFTISRDNAKNSLYLQMDSLRAEDTALYYCARDMMEVDLYGMDVWGQGTTVTVSS VL: DIQMTQSPSSVSASVGDRVTITCRASQDISSWLAWYQQKPGTAPKFLIYETSSLQSGVPSRFSGSGSGTDFILTISSLQPEDFATYYCQQTDSFPHTFGQGTKLEIR
Result: 4.34e-05

Request: And the next one, H1M1940N (antibody, V domains shown, Hybridoma chimeric antibody: human variable domains, mouse constant domains (H1M prefix, mouse Fc)) VH: QVQVVESGGGVVQPGRSLRLSCAASGFTFSDYGMHWVRQAPGKGLEWVAIISYDGSNKYYADSVKGRFTVSRDNSKNTLYLQLDSLRPEDAAVFYCAREGAFNLDYYAMDVWGQGTTVTVSS VL: AIQMTQSPSSLSASVGDRVTITCRASQDIRNDLGWYQQKPGKAPNLLIYAASSLQSGVPSRFSGSGSGTDFTLTISSLQPEDFATYYCLQDSNYPLTFGGGTKVEIK ?
Result: 2.43e-05
